# target: T1, Fc tagged human TNFR1 (Sino Biological) (human, UniProt P19438 22-211, limits assumed)
# T1 construct: Bought reagent; also called hTNFR1; hTNFR1-Fc; not shown: Fc tag of the bought protein
# T1 sequence (looked up): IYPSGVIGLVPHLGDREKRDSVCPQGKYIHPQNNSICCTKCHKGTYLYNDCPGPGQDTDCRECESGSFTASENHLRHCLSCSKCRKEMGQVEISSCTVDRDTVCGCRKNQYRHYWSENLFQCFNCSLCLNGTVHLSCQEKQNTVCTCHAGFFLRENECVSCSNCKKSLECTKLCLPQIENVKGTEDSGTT
# protocol-description: SPR, Biacore single cycle kinetics, stability study, before freezing (t=0)
Please use Condition met for Kd under 0.02 nM and Condition not met for everything else, ties included.

Quick check: Kd of TNF mutein G4 (ligand, Human TNF mutein, SSTYNP at positions 84-89; also called mutTNF G4; mutTNF; not shown: C-terminal FLAG tag and His6 tag from vector pANT65) VRSSSRTPSDKPVAHVVANPQAEGQLQWLNRRANALLANGVELRDNQLVVPSEGLYLIYSQVLFKGQGCPSTHVLLTHTISRISSTYNPKVNLLSAIKSPCQRETPEGAEAKPWYEPIYLGGVFQLEKGDRLSAEINRPDYLDFAESGQVYFGIIAL under 0.02 nM? Condition met

Here is the next binder: TNF mutein B2 (ligand, Human TNF mutein, TASYSG at positions 84-89; not shown: C-terminal FLAG tag and His6 tag from vector pANT65) VRSSSRTPSDKPVAHVVANPQAEGQLQWLNRRANALLANGVELRDNQLVVPSEGLYLIYSQVLFKGQGCPSTHVLLTHTISRITASYSGKVNLLSAIKSPCQRETPEGAEAKPWYEPIYLGGVFQLEKGDRLSAEINRPDYLDFAESGQVYFGIIAL Condition met

Here is the next binder: TNF mutein B5 (ligand, Human TNF mutein, TGTYVD at positions 84-89; not shown: C-terminal FLAG tag and His6 tag from vector pANT65) VHSSSRTPSDKPVAHVVANPQAEGQLQWLNRRANALLANGVELRDNQLVVPSEGLYLIYSQVLFKGQGCPSTHVLLTHTISRITGTYVDKVNLLSAIKSPCQRETPEGAEAKPWYEPIYLGGVFQLEKGDRLSAEINRPDYLDFAESGQVYFGIIAL Condition not met

Here is the next binder: TNF mutein F7 (ligand, Human TNF mutein, SETVVG at positions 84-89; not shown: C-terminal FLAG tag and His6 tag from vector pANT65) VHSSSRTPSDKPVAHVVANPQAEGQLQWLNRRANALLANGVELRDNQLVVPSEGLYLIYSQVLFKGQGCPSTHVLLTHTISRISETVVGKVNLLSAIKSPCQRETPEGAEAKPWYEPIYLGGVFQLEKGDRLSVEINRPDYLDFAESGQVYFGIIAL Condition not met

Here is the next binder: TNF mutein B6 (ligand, Human TNF mutein, TGTYSY at positions 84-89; not shown: C-terminal FLAG tag and His6 tag from vector pANT65) VRSSSRTPSDKPVAHVVANPQAEGQLQWLNRRANALLANGVELRDNQLVVPSEGLYLIYSQVLFKGQGCPSTHVLLTHTISRITGTYSYKVNLLSAIKSPCQRETPEGAEAKPWYEPIYLGGVFQLEKGDRLSAEINRPDYLDFAESGQVYFGIIAL Condition not met

Here is the next binder: TNF mutein F3 (ligand, Human TNF mutein, TTTYRL at positions 84-89; not shown: C-terminal FLAG tag and His6 tag from vector pANT65) VRSSSRTPSDKPVAHVVANPQAEGQLQWLNRRANALLANGVELRDNQLVVPSEGLYLIYSQVLFKGQGCPSTHVLLTHTISRITTTYRLKVNLLSAIKSPCQRETPEGAEAKPWYEPIYLGGVFQLEKGDRLSAEINRPDYLDFAESGQVYFGIVAL Condition met
